Items are presented alongside their recorded logD.
- ASSAY SUMMARY: Partition coefficient, log D at pH 7.4 by shake-flask method
- Format: physicochemical
- CONDITION CONTEXT: octanol/water
Number only, please.

CCCCCCCCCCCCCCCC(=O)NCCCC[C@H](NC(=O)[C@H](CCCCN)NC(=O)[C@H](CCCCN)NC(=O)[C@@H]1CCCN1C(=O)CNC(=O)[C@H](CC(C)C)NC(=O)[C@H](CC(C)C)NC(=O)[C@H](Cc1ccc(O)cc1)NC(=O)CNC(=O)[C@H](C)NC(=O)[C@H](CO)NC(=O)[C@H](CC(N)=O)NC(=O)[C@H](CC(C)C)NC(=O)[C@@H](NC(=O)[C@H](Cc1c[nH]c2ccccc12)NC(=O)CNC)[C@@H](C)O)C(=O)N[C@@H](CCCCN)C(N)=O	1.26
CCCCCCCCCCCCCCCC(=O)NCCCC[C@H](NC(=O)[C@H](C)NC(=O)[C@H](Cc1cnc[nH]1)NC(=O)[C@@H]1CCCN1C(=O)CNC(=O)[C@H](CC(C)C)NC(=O)[C@H](CC(C)C)NC(=O)[C@H](Cc1ccc(O)cc1)NC(=O)CNC(=O)[C@H](C)NC(=O)[C@H](CO)NC(=O)[C@H](CC(N)=O)NC(=O)[C@H](CC(C)C)NC(=O)[C@@H](NC(=O)[C@H](Cc1c[nH]c2ccccc12)NC(=O)CNC)[C@@H](C)O)C(N)=O	1.55
CC(C)C[C@H](NC(=O)[C@H](CC(C)C)NC(=O)[C@H](Cc1ccc(O)cc1)NC(=O)CNC(=O)[C@H](C)NC(=O)[C@H](CO)NC(=O)[C@H](CC(N)=O)NC(=O)[C@H](CC(C)C)NC(=O)[C@@H](NC(=O)[C@H](Cc1c[nH]c2ccccc12)NC(=O)CN)[C@@H](C)O)C(=O)NCC(=O)N1CCC[C@H]1C(=O)N[C@@H](Cc1cnc[nH]1)C(=O)N[C@@H](C)C(=O)N[C@H](C(N)=O)C(C)C	0.66

In the following, a different compound is considered.
Field request: logD | item: CNCC(=O)N[C@@H](Cc1c[nH]c2ccccc12)C(=O)N[C@H](C(=O)N[C@@H](CC(C)C)C(=O)N[C@@H](CC(N)=O)C(=O)N[C@@H](CO)C(=O)N[C@@H](C)C(=O)NCC(=O)N[C@@H](Cc1ccc(O)cc1)C(=O)N[C@@H](CC(C)C)C(=O)N[C@@H](CC(C)C)C(=O)NCC(=O)N1CCC[C@H]1C(=O)N[C@@H](CCCCN)C(=O)N[C@@H](CCCCN)C(=O)N[C@@H](CCCCN)C(=O)N[C@@H](CCCCN)C(N)=O)[C@@H](C)O
0.4
